System: HCT-116 colon
Test: NCI-60 one-dose screen, 48 h
Settings: 10 µM unless noted
Description: Growth inhibition of the HCT-116 human tumor cell line is measured as a screen for anti-cancer activity. Cells are grown in 96 well plates and exposed to the test compound for 48 hours. Compounds are tested at a single concentration, which is 10^-5 M for most compounds. The reported endpoint is percent growth (GI% or GIPRCNT), where numbers from 0 - 100% represent growth inhibition, and numbers from -100% - 0 represent cell death. For example, a value of 40 represents 60% growth inhibition. […]
The panel holds about 83,000 compounds, 20% with a hit somewhere; the sample as a whole holds those more often. Activity calls are given as the source filed them. The calls were made as follows: active = growth percent below 10; inactive = the rest.
Outcome codes: active, inactive

1. COc1ccc(-c2cc(-c3ccccc3)nc(N3CCN(CCNc4ccnc5cc(Cl)ccc45)CC3)n2)cc1	active
2. CCN1C(=O)N(CC)C2C1NN=c1s/c(=C3\C(=O)N(CC(C)C)c4ccccc43)c(=O)n12 (stereo not given)	inactive
3. CCN(CC)CCN1C(=O)c2cccc3c(/C=C/CN4C(=O)c5cccc6cccc(c56)C4=O)ccc(c23)C1=O	inactive
4. CN(C)c1ccc(-c2ccc3c(c2)c(-c2ccccc2)nc(=O)n3C)cn1	inactive
5. Clc1ccccc1-c1cnn2cc(-c3ccccc3)cnc12	inactive

* * *

Test system: HCC-2998 colon
Test: NCI-60 one-dose screen, 48 h (100 = growth as untreated, 0 = no growth, -100 = all killed)
Conditions: 10 µM unless noted
Method: Growth inhibition of the HCC-2998 human tumor cell line is measured as a screen for anti-cancer activity. Cells are grown in 96 well plates and exposed to the test compound for 48 hours. Compounds are tested at a single concentration, which is 10^-5 M for most compounds. The reported endpoint is percent growth (GI% or GIPRCNT), where numbers from 0 - 100% represent growth inhibition, and numbers from -100% - 0 represent cell death. For example, a value of 40 represents 60% growth inhibition. […]
This is part of a sample that, as a whole, favours compounds with a hit. Of some 83,000 tested, about 20% had one in any assay.
Response key: 1.0 means growth >= 70%; 0.0 means growth < 70%.

1) CNC(C)[C@H]1CCC2C3CC=C4C(=O)[C@@H](NC(=O)C=C(C)C)CC[C@]4(C)C3CC[C@@]21C (stereo partly drawn)	0.0
2) CN1CCN(Cc2ccc(NC(=O)c3cncc(C#Cc4cnc(N)c5ncccc45)c3)cc2C(F)(F)F)CC1	0.0
3) CC1=C(CCC(C)NCc2ccc(OCCCN3CCCCC3)cc2)C(C)(C)CCC1 (stereo not drawn)	0.0
4) COc1ccc(CNc2c3ccccc3nc3ccccc23)c(OC)c1	0.0
5) CN(C)c1ccc(-c2ccc3c(c2)c(-c2ccccc2)nc(=O)n3C)cn1	1.0
6) Cn1c(=O)c2[nH]c(SCC(=O)Nc3ccc(C(=O)/C=C/c4ccccc4Cl)cc3)nc2n(C)c1=O	1.0
7) CC1(C)CC(=O)c2c(nn(-c3ccc(Br)cc3)c2-c2cn(-c3ccccc3)nc2-c2cccnc2)C1	1.0
8) CCOC(=O)C(=Cc1ccc(-c2ccccc2)cc1)C(=O)OCC	1.0
9) CCOC(=O)/C=C1\S/C(=N\Nc2cc(=O)[nH]c3ccccc23)N(c2ccccc2)C1=O	1.0
10) O=C1Nc2ccccc2/C1=C/c1cccn1C(=O)c1ccc(Cl)s1	0.0
11) Cc1ccc(-c2csc(N(C(=O)N3CCN(c4cc5c(cc4F)c(=O)c(C(=O)O)cn5C4CC4)CC3)c3ccccc3)n2)cc1	0.0
12) C=C(C)[C@@H]1CCC[C@]2(C(=O)N3CCN(C)CC3)CC[C@]3(C)[C@@H](CC[C@@H]4[C@@]5(C)CC/C(=N\NC(=O)c6ccncc6)C(C)(C)[C@@H]5CC[C@]43C)[C@@H]12	1.0
13) CCCCNC(=O)c1cc([N+](=O)[O-])cc(C2CCCCC2)c1O	0.0
14) CCS/C(Nc1ccccc1)=C(\C#N)C(=O)Nc1ccc(OC)cc1	0.0
15) O=C1c2ccccc2C(=O)c2c1c(C(=O)NCc1ccccc1)c1ccccn21	1.0
16) S=c1[nH]c(=S)c2c(-c3ccccc3)c(-c3ccccc3)oc2[nH]1	1.0
17) C=C(CNCCc1ccc(O)cc1)[C@@H]1CC[C@]2(CO)CC[C@]3(C)[C@H](CC[C@@H]4[C@@]5(C)CCC(=O)C(C)(C)[C@@H]5CC[C@]43C)[C@@H]12	0.0
18) C#Cc1cccc(Nc2nc(C)nc3cc(NC(=O)CCl)ccc23)c1	0.0
19) CCOC(=O)C1=C(C)/C(=C\c2[nH]c(C)c(C(=O)OCC)c2C)N=C1C	1.0
20) CCc1ccc(CCC(=O)Nc2ncc(Cc3cc(Cl)ccc3Cl)s2)o1	0.0
21) O=C1c2ccccc2C(=O)C1c1ccc(Br)cc1	1.0
22) Cc1ccc2c(=O)cc(C(=O)Nc3sc4c(c3C(=O)NCc3cccnc3)CCCC4)oc2c1C	1.0
23) Cc1c2cccnc2c(C)c2c1c1cc(CO)ccc1n2C	0.0
24) O=C(N=Nc1c(O)[nH]c2ccccc12)Nc1ccc(F)cc1	1.0
25) Cc1ccc(C(=O)c2ccc(CC(=O)NN3C(=O)c4ccccc4C3=O)n2C)cc1	1.0
26) COc1cccc(CCNc2ncnc3c2ncn3Cc2nnc3c4ccccc4c(Cl)nn23)c1	1.0
27) COc1cccc(/C=N/NC(=O)c2ccccc2N2CCCC2)c1O	0.0
28) COc1ccc(Cn2cc(C(=O)N=Nc3c(O)[nH]c4c(C)cccc34)nn2)cc1	1.0
29) NS(=O)(=O)c1ccc(-c2cc(-c3nnc(SCC(=O)Nc4ccc(C(=O)/C=C/c5ccc(Cl)cc5)cc4)n3-c3ccccc3)c3ccccc3n2)cc1	1.0
30) Nc1nc(N)c2c(n1)NC(c1cccc(Nc3ccnc4cc(C(F)(F)F)ccc34)c1)CC(c1ccc(Br)cc1)=N2 (stereo not drawn)	0.0
31) COc1ccc(-c2nc(/C=C3\C(=O)N(C)c4ccccc43)c3ccccn23)cc1	1.0
32) Cc1cccc(Oc2ccc(Nc3ncnc4ccc(NC(=O)CN5CCN(C)CC5)cc34)cc2Cl)c1	0.0
33) O=C1/C(=C/c2ccccn2)NC(=S)N1c1ccccc1Cl	1.0
34) CC[N+]1(CC)CC[N+]2(CCCC(C)CC2)CC1 (stereo not drawn)	1.0
35) Cc1ccc2nc(NC(=O)CSc3nc(-c4ccccc4)c(C#N)c4nnnn34)sc2c1	1.0
36) COc1cc(/C=C2\CN(S(=O)(=O)c3ccccc3)C/C(=C\c3cc(CN4CCCCC4)c(O)c(OC)c3)C2=O)cc(CN2CCCCC2)c1O	0.0
37) O=C(Nc1cnc(Nc2ccc(N3CCOCC3)nc2)nc1Oc1ccc(C(F)(F)F)cc1)c1ccncc1	1.0
